experimentalTarget: BCL2 G101V (Homo sapiens, UniProt P10415, G101V)
assayRemarks: TR-FRET competitive binding assay, BCL2 G101V
conditionDescription: BCL2 G101V; Ki determined from IC50; read-out: TR_FRET EKI_Bcl2 G101V
measuredAttribute: log10 of Ki (log10 of the value in pM)
Could you please treat all values as log10 of Ki in pM?

INSERT INTO assay_data (molecule, measuredattribute, number) VALUES
  ('Cc1c(C(=O)N(c2ccc(O)cc2)c2cc(C#N)n(C(F)F)c2C)cc(-c2cc3c(cc2C(=O)N2Cc4ccccc4C[C@H]2CN2CCCCC2)CN(C(=O)Cc2ccc(OCCN4CCN(C)CC4)cc2F)CC3)n1C', 'log10 of Ki', 2.30),
  ('COCCn1c(C#N)cc(N(C(=O)c2cc(-c3cc4c(cc3C(=O)N3Cc5ccccc5C[C@H]3C)CN(C(=O)Cc3ccc(OCCN5CCOCC5)cc3)CC4)n(C)c2C)c2ccc(O)cc2)c1C', 'log10 of Ki', 2.60),
  ('Cc1c(N(C(=O)c2cc(-c3cc4c(cc3C(=O)N3Cc5ccccc5C[C@H]3CN3CCCCC3)CN(C(=O)Cc3ccc(OCC(C)N5CCOCC5)cc3F)CC4)n(C)c2C)c2ccc(O)cc2)cc(C#N)n1C (single isomer, unassigned) [Example 141]', 'log10 of Ki', 2.48),
  ('COc1ccc(N(C(=O)c2cc(-c3cc4c(cc3C(=O)N3Cc5ccccc5C[C@H]3C)CN(C(=O)Cc3ccc(OCCN5CCOCC5)cc3F)CC4)n(C)c2C)c2ccccc2)cn1', 'log10 of Ki', 3.41),
  ('Cc1c(N(C(=O)c2cc(-c3cc4c(cc3C(=O)N3Cc5ccccc5C[C@H]3CN(C)C(C)C)CN(C(=O)Cc3ccc(OCCN(C)C5CC5)cc3)CC4)n(C)c2C)c2ccc(O)cc2)cc(C#N)n1C', 'log10 of Ki', 2.70);

Give one value of log10 of Ki per listed molecule.
1. Cc1c(N(C(=O)c2cc(-c3cc4c(cc3C(=O)N3Cc5ccccc5C[C@H]3CN3CCCCC3)CN(C(=O)Cc3ccc(OCCN5CCC(F)(F)C5)cc3)CC4)n(C)c2C)c2ccc(O)cc2)cc(C#N)n1C
2. Cc1c(C(=O)N(c2ccccc2)c2cnn(C)c2)cc(-c2cc3c(cc2C(=O)N2Cc4ccccc4C[C@H]2C)CN(C(=O)Cc2ccc(OCCN4CCOCC4)cc2F)CC3)n1C
3. Cc1c(C(=O)N(c2ccc(O)cc2)c2cc(C#N)n(C(F)F)c2C)cc(-c2cc3c(cc2C(=O)N2Cc4ccccc4C[C@H]2CN2CC4(CCC4)C2)CN(C(=O)Cc2ccc(OCCC4CCOCC4)cc2)CC3)n1C
4. Cc1c(N(C(=O)c2cc(-c3cc4c(cc3C(=O)N3Cc5ccccc5C[C@H]3CN3CCCCC3)CN(C(=O)Cc3ccc(OCCN5CCOC(C)C5)cc3F)CC4)n(C)c2C)c2ccc(O)cc2)cc(C#N)n1C (single isomer, unassigned) [Example 109]

Solution:
1: 3.08; 2: 3.08; 3: 2.48; 4: 2.30
